Taken from ChEMBL document CHEMBL1140690.

# run-description: Drug level in BALB/c mouse plasma at 50 mg/kg, po after 4 hrs
# Assay type: ADME, organism-based
# Parameters: dose 50 mg/kg, route oral
measure-name: concentration at 4 h (µM)

In [3]: df
Out[3]:
                  compound_structure_string  result_number
0  NC1CCN(Cc2ccn3ncnc(Nc4ccc5c(cnn5Cc5cccc(F)c5)c4)c23)CC1            2.7
1  NC1CCN(Cc2ccn3ncnc(Nc4ccc(OCc5cnccn5)c(Cl)c4)c23)CC1            6.3
2  Cc1cncc(Cn2ncc3cc(Nc4ncnn5ccc(CN6CCC(N)CC6)c45)ccc32)c1            1.3
3  NC1CCN(Cc2ccn3ncnc(Nc4ccc5c(cnn5Cc5cccnc5)c4)c23)CC1            4.5

----------
# test-target: Vascular endothelial growth factor receptor 2 (Homo sapiens, UniProt P35968)
# Sequence (P35968 whole entry): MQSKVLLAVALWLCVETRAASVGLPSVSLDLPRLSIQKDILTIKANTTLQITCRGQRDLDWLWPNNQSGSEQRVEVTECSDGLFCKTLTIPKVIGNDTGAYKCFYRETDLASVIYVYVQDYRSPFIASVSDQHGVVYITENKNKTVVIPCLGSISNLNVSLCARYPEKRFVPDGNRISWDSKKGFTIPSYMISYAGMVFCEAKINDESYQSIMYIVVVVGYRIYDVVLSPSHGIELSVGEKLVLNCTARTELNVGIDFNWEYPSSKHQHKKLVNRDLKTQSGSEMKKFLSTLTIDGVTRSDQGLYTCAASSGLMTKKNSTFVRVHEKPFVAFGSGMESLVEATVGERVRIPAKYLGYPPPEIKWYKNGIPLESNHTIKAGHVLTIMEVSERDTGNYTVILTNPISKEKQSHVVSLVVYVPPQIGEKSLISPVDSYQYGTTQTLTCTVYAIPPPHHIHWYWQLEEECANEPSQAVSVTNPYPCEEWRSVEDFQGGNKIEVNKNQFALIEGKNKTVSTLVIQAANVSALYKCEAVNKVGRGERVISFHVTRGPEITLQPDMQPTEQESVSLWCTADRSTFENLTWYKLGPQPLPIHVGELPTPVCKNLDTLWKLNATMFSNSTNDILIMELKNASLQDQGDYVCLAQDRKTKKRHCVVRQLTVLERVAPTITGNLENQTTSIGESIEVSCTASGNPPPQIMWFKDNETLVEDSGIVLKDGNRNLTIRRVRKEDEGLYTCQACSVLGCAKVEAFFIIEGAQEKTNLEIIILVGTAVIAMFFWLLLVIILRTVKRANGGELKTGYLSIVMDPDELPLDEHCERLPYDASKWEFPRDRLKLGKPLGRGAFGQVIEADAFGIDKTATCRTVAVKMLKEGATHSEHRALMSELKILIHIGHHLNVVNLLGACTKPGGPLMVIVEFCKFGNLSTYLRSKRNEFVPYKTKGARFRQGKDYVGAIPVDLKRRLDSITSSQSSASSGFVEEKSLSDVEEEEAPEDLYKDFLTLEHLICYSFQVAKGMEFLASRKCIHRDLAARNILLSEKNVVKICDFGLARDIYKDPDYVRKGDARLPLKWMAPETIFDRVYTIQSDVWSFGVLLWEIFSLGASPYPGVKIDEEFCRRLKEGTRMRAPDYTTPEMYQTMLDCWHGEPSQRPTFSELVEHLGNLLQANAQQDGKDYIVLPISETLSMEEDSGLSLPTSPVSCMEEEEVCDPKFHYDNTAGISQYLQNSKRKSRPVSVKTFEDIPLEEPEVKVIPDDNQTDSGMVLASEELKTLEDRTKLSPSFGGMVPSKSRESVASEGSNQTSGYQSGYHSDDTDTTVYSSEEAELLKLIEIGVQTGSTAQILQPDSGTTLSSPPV
measure-name: IC50 (nM)

>>> df
                  compound_structure_string  result_number
0  NC1CCN(Cc2ccn3ncnc(Nc4ccc5c(cnn5Cc5cccc(F)c5)c4)c23)CC1            480

----------
Entries and their IC50 values follow.
# Tested on: HT29
# run-description: Antiproliferative activity against human HT29 cells
measure-name: IC50 (µM)

>>> df
                  compound_structure_string  measure_name  op  result_number
0  CC1(N)CCN(Cc2ccn3ncnc(Nc4ccc5c(cnn5Cc5cccc(F)c5)c4)c23)CC1          IC50   =            6.1
1  NC1CCN(Cc2ccn3ncnc(Nc4ccc5c(cnn5Cc5cccc(F)c5)c4)c23)CC1          IC50   =            4.3
2  CC(=O)NC1CCN(Cc2ccn3ncnc(Nc4ccc5c(cnn5Cc5cccc(F)c5)c4)c23)CC1          IC50   >             10

----------
# test-target: Tyrosine-protein kinase Lck (Homo sapiens, UniProt P06239)
# Sequence (P06239 whole entry): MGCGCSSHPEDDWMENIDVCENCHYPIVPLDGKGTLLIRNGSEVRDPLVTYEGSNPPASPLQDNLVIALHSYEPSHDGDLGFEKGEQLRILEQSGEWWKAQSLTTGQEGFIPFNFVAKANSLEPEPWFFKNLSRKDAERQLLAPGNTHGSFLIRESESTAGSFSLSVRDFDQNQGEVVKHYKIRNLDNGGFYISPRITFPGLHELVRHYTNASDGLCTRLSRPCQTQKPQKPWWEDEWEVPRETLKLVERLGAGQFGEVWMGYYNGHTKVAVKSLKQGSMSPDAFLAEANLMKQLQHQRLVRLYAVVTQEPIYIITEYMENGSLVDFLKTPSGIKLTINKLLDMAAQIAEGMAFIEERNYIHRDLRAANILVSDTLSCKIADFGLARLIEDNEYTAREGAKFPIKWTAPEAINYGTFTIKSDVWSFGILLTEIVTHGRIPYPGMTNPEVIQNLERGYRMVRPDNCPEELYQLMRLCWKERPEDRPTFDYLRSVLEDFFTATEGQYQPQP
# run-description: Inhibition of LCK
measure-name: IC50 (nM)

In [3]: df
Out[3]:
                  compound_structure_string  measure_name  result_number
0  NC1CCN(Cc2ccn3ncnc(Nc4ccc5c(cnn5Cc5cccc(F)c5)c4)c23)CC1          IC50            710

----------
# System: Liver
# run-description: Metabolic stability in mouse liver microsomes at 3 uM after 10 mins in presence of NADPH
# Type: ADME, Microsome
Entries and their metabolic rate values follow.
measure-name: metabolic rate (nmol/min/mg)

>>> df
                  compound_structure_string  test_target  result_number
0  Cc1cncc(Cn2ncc3cc(Nc4ncnn5ccc(CN6CCC(N)CC6)c45)ccc32)c1        Liver           0.06
1  NC1CCN(Cc2ccn3ncnc(Nc4ccc5c(cnn5Cc5cccc(F)c5)c4)c23)CC1        Liver           0.05
2  NC1CCN(Cc2ccn3ncnc(Nc4ccc5c(cnn5Cc5ccccn5)c4)c23)CC1        Liver           0.01
3  NC1CCN(Cc2ccn3ncnc(Nc4ccc5c(cnn5Cc5cccnc5)c4)c23)CC1        Liver           0.01
4  NC1CCN(Cc2ccn3ncnc(Nc4ccc(OCc5cnccn5)c(Cl)c4)c23)CC1        Liver           0.12
5  Cc1cncc(COc2ccc(Nc3ncnn4ccc(CN5CCC(N)CC5)c34)cc2Cl)c1        Liver              0
6  NC1CCN(Cc2ccn3ncnc(Nc4ccc(OCc5ccccn5)c(Cl)c4)c23)CC1        Liver           0.04
7  NC1CCN(Cc2ccn3ncnc(Nc4ccc(OCc5cccc[n+]5[O-])c(Cl)c4)c23)CC1        Liver              0

----------
# test-target: Hepatocyte growth factor receptor (Homo sapiens)
# Sequence (P08581 whole entry): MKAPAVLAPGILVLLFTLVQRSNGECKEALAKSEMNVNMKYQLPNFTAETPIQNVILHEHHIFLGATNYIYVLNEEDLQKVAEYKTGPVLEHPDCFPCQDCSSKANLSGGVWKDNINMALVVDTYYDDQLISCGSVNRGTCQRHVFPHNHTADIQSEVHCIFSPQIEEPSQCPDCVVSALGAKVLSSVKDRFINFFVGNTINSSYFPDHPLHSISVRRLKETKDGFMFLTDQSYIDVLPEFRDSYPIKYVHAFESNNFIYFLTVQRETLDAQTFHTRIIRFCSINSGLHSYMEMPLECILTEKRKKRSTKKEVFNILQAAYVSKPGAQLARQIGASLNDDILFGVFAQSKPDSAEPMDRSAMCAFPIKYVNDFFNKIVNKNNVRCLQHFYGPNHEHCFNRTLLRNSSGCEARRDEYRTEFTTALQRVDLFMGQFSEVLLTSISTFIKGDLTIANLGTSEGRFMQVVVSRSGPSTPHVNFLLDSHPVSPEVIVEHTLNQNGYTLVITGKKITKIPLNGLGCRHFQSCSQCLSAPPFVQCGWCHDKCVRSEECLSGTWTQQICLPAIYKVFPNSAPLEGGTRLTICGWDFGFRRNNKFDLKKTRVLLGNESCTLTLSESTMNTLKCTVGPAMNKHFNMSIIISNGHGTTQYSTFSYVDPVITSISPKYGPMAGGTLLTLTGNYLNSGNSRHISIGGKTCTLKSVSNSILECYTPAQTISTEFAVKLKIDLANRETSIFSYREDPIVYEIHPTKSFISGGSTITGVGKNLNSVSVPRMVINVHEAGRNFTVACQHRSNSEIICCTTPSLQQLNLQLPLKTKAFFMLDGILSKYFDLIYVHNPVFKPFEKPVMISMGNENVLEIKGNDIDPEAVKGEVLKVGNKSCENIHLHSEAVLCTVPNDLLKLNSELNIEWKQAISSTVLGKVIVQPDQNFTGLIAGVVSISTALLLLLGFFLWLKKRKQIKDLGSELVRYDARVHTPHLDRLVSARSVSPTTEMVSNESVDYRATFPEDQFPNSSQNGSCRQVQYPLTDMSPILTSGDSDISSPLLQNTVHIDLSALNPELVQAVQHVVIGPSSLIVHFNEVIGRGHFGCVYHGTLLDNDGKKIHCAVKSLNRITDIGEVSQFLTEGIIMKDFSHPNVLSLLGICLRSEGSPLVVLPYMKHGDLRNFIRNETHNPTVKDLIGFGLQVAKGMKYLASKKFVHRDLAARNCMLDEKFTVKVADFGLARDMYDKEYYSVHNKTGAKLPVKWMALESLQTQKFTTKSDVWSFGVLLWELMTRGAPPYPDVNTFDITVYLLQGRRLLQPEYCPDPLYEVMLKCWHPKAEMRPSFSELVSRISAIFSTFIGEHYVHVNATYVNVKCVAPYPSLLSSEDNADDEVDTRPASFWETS
# run-description: Inhibition of Met
pIC50: −log10 of the molar value.
measure-name: pIC50

>>> print(df.to_string())
                  compound_structure_string  measure_name  result_number
0  NC1CCN(Cc2ccn3ncnc(Nc4ccc5c(cnn5Cc5cccc(F)c5)c4)c23)CC1         pIC50           5.41

----------
Entries and their IC50 values follow.
# run-description: Inhibition of PKA
# Parameters: species or system Homo sapiens
measure-name: IC50

In [3]: df
Out[3]:
                  compound_structure_string  measure_name   result
0  Fc1cccc(Cn2ncc3cc(Nc4ncnn5ccc(COC[C@@H]6CNCCO6)c45)ccc32)c1          IC50  > 50 µM
1  NC1CCN(Cc2ccn3ncnc(Nc4ccc5c(cnn5Cc5cccc(F)c5)c4)c23)CC1          IC50  > 50 µM

----------
# test-target: UniProtKB P00533
# Sequence (P00533 whole entry): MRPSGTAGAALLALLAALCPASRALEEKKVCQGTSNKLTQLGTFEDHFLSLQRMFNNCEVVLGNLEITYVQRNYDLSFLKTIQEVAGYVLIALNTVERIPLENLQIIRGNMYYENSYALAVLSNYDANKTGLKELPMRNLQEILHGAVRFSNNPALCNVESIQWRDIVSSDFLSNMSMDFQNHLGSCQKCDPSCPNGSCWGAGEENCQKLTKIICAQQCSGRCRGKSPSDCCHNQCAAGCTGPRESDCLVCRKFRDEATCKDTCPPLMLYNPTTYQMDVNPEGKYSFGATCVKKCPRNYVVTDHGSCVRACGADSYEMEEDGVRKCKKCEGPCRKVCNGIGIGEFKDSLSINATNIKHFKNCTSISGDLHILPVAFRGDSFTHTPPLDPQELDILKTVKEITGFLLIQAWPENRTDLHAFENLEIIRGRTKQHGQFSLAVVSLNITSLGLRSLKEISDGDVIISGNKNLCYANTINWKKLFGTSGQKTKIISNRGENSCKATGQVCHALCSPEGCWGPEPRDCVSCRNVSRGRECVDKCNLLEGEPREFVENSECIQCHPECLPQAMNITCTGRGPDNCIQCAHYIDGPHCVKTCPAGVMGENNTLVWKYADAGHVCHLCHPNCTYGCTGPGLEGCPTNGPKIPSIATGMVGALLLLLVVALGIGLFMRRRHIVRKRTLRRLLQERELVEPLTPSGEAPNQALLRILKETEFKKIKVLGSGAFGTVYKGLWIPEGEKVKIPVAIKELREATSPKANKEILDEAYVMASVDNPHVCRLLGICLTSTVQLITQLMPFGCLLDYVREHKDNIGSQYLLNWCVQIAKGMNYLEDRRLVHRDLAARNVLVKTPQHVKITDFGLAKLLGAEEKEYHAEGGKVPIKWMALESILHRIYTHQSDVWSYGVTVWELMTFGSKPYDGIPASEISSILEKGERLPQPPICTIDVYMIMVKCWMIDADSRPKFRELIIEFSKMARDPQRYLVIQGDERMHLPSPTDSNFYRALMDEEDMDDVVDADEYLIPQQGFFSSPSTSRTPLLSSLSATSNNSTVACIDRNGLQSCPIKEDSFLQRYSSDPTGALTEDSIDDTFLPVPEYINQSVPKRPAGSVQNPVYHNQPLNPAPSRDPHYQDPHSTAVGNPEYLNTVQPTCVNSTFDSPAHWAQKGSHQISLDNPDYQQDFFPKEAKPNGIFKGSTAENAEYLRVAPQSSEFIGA
# run-description: Inhibition of human recombinant EGFR expressed in insect Sf9 cells
pIC50: −log10 of the molar value.
pIC50 below 7 gives FALSE; pIC50 at or above it gives TRUE.

In [3]: df
Out[3]:
                   compound_structure_string  assigned_category
 0  Cc1cncc(Cn2ncc3cc(Nc4ncnn5ccc(CN6CCC(N)CC6)c45)ccc32)c1               TRUE
 1  Fc1cccc(COc2ccc(Nc3ncnn4ccc(CN5CCCNCC5)c34)cc2Cl)c1               TRUE
 2  NC1CCN(Cc2ccn3ncnc(Nc4ccc5c(cnn5Cc5cccnc5)c4)c23)CC1              FALSE
 3  N[C@H]1CCN(Cc2ccn3ncnc(Nc4ccc5c(cnn5Cc5cccc(F)c5)c4)c23)C1               TRUE
 4  NC1CCN(Cc2ccn3ncnc(Nc4ccc5c(cnn5Cc5ccccn5)c4)c23)CC1               TRUE
 5  NCC1CCN(Cc2ccn3ncnc(Nc4ccc5c(cnn5Cc5cccc(F)c5)c4)c23)CC1               TRUE
 6  CC1(N)CCN(Cc2ccn3ncnc(Nc4ccc5c(cnn5Cc5cccc(F)c5)c4)c23)CC1               TRUE
 7  COc1cn2ncnc(Nc3ccc4c(cnn4Cc4cccc(F)c4)c3)c2c1CN1CCCNCC1              FALSE
 8  NC1CCN(Cc2ccn3ncnc(Nc4ccc5c(cnn5Cc5cccc(F)c5)c4)c23)CC1               TRUE
 9  N[C@@H]1CCN(Cc2ccn3ncnc(Nc4ccc5c(cnn5Cc5cccc(F)c5)c4)c23)C1               TRUE
10  NC1CCN(Cc2ccn3ncnc(Nc4ccc(OCc5cccc(F)c5)c(Cl)c4)c23)CC1               TRUE
11  COc1cn2ncnc(Nc3ccc4c(cnn4Cc4cccc(F)c4)c3)c2c1CN1CCC(N)CC1               TRUE
12  NC1CCN(Cc2ccn3ncnc(Nc4ccc5c(cnn5Cc5ccncc5)c4)c23)CC1              FALSE
13  CS(=O)(=O)CCNC1CCN(Cc2ccn3ncnc(Nc4ccc5c(cnn5Cc5cccc(F)c5)c4)c23)CC1              FALSE
14  NC1CCN(Cc2ccn3ncnc(Nc4ccc(OCc5cnccn5)c(Cl)c4)c23)CC1               TRUE
15  CC(=O)NC1CCN(Cc2ccn3ncnc(Nc4ccc5c(cnn5Cc5cccc(F)c5)c4)c23)CC1              FALSE
16  NC1CCN(Cc2ccn3ncnc(Nc4ccc(OCc5ccccn5)c(Cl)c4)c23)CC1               TRUE

----------
# run-description: AUC (0 to 4 hrs) in BALB/c mouse at 50 mg/kg, po after 4 hrs
# Assay type: ADME, organism-based
# Set-up: time < 4 hr, dose 50 mg/kg, route oral
# experimental-setup: plasma
Entries and their AUC(0-t) at 4 h values follow.
measure-name: AUC(0-t) at 4 h (µM·h)

>>> df
                  compound_structure_string     measure_name  result_number
0  NC1CCN(Cc2ccn3ncnc(Nc4ccc(OCc5cccnc5)c(Cl)c4)c23)CC1  AUC(0-t) at 4 h             30
1  NC1CCN(Cc2ccn3ncnc(Nc4ccc(OCc5cnccn5)c(Cl)c4)c23)CC1  AUC(0-t) at 4 h             21
2  NC1CCN(Cc2ccn3ncnc(Nc4ccc(OCc5cccc[n+]5[O-])c(Cl)c4)c23)CC1  AUC(0-t) at 4 h             15
3  NC1CCN(Cc2ccn3ncnc(Nc4ccc5c(cnn5Cc5ccccn5)c4)c23)CC1  AUC(0-t) at 4 h            3.6
4  NC1CCN(Cc2ccn3ncnc(Nc4ccc(OCc5ccccn5)c(Cl)c4)c23)CC1  AUC(0-t) at 4 h             13
5  NC1CCN(Cc2ccn3ncnc(Nc4ccc5c(cnn5Cc5cccnc5)c4)c23)CC1  AUC(0-t) at 4 h             22
6  Cc1cncc(Cn2ncc3cc(Nc4ncnn5ccc(CN6CCC(N)CC6)c45)ccc32)c1  AUC(0-t) at 4 h            9.9
7  Cc1cncc(COc2ccc(Nc3ncnn4ccc(CN5CCC(N)CC5)c34)cc2Cl)c1  AUC(0-t) at 4 h            7.8
8  NC1CCN(Cc2ccn3ncnc(Nc4ccc5c(cnn5Cc5cccc(F)c5)c4)c23)CC1  AUC(0-t) at 4 h             14
